- ASSAY_METHOD_TEXT: solubility of acetaminophen in recrystallisation solvent (50% water and 50% methanol)
- Type: physicochemical
- MEASUREMENT_SETUP: aqueous with cosolvent or surfactant or cyclodextrin; solvent mixture of 50% water and 50% methanol by volume, heated to near boiling
REPORTED_ENDPOINT: solubility

Prompt: Could you please provide reported solubility for CC(=O)Nc1ccc(O)cc1 ? Thanks!
Completion: ~200 mg/mL
